Attribution: patent US20210388087A1

Assay system: T1, CD3 epsilon homodimer protein (UniProt P07766 23-126)
T1 construct: also called CD3 (CD3 epsilon)
T1 sequence (P07766 23-126): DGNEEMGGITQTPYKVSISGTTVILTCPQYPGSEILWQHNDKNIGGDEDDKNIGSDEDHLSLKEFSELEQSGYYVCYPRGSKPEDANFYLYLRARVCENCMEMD
Assay remarks: SPR Biacore T200, CD3e homodimer on chip, vs unaltered GLS3000 antibody
Recorded ratio of amounts bound (Z=Y/X) for the following binders
In your answer, state the number alone without any accompanying words.

Please report the recorded ratio of amounts bound (Z=Y/X) for GLS3000 S56Q (antibody, name in Kabat numbering, V domains shown, one-arm IgG as m2) VH: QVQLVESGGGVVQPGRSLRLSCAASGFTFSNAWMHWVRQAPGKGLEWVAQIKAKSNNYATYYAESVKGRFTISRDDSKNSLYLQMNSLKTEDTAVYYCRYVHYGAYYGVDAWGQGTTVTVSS VL: DIVMTQSPLSLPVTPGEPASISCRSSQSLVHSNRNTYLHWYQQKPGQAPRLLIYKVSNRFQGVPDRFSGSGSGTDFTLKISRVEAEDVGVYYCGQGTQVPYTFGQGTKLEIK .
1.04

For the next question, use this binder.
Please report the recorded ratio of amounts bound (Z=Y/X) for GLS3000 N30G (antibody, name in Kabat numbering, V domains shown, one-arm IgG as m2) VH: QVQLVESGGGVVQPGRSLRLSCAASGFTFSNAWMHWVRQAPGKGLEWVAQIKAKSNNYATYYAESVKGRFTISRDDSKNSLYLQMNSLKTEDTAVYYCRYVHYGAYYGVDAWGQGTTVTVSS VL: DIVMTQSPLSLPVTPGEPASISCRSSQSLVHSNRGTYLHWYQQKPGQAPRLLIYKVSNRFSGVPDRFSGSGSGTDFTLKISRVEAEDVGVYYCGQGTQVPYTFGQGTKLEIK .
0.47
